- Experimental Target: Lats1 (Homo sapiens, UniProt O95835)
- Construct: purchased Carna 01-123
- Sequence (O95835 whole entry): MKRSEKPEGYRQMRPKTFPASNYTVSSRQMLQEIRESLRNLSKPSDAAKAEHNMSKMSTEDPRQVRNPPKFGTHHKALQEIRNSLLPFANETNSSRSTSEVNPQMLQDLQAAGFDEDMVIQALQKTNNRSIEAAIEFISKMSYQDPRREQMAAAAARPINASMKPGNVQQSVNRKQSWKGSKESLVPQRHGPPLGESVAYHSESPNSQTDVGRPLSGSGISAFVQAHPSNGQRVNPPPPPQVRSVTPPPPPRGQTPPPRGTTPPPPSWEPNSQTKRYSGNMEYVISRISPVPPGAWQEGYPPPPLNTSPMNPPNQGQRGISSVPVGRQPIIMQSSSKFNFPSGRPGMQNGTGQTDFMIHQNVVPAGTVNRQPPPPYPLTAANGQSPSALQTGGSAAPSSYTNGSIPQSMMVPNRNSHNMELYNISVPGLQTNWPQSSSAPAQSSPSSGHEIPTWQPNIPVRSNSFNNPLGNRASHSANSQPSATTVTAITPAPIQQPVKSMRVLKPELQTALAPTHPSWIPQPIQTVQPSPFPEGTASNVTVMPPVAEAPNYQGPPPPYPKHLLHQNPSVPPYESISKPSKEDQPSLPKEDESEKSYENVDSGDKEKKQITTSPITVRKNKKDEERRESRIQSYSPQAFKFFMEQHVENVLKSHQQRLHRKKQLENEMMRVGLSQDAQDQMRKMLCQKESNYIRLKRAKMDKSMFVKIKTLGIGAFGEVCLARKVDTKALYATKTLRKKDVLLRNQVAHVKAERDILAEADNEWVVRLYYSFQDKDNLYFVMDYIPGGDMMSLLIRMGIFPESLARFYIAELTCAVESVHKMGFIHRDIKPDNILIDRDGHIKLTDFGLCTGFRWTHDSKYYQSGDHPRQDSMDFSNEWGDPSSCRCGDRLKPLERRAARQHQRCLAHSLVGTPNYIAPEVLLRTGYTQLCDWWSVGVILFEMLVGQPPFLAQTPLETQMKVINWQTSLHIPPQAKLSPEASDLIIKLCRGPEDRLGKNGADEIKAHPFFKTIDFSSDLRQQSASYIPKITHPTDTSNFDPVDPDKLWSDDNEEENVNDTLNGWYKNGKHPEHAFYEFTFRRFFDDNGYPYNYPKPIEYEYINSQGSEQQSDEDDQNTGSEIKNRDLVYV
- Test Method Notes: In vitro kinase assay (HTRF KinEASE-STK S1) Lats1, 2 mM ATP
- Assay type: biochemical
- Experimental Parameters: 2 mM ATP; read-out: LATS1_HTRF_2 mM ATP IC50

# Compound, IC50
data = [
    ("Cc1cccc(-n2ccs/c2=N\\C(=O)c2c[nH]c3ncccc23)c1 [T20]", "155 nM"),
    ("N#Cc1ccccc1-n1ccs/c1=N\\C(=O)c1c[nH]c2ncccc12 [T28]", "194 nM"),
    ("NCc1ccccc1Cn1ccs/c1=N\\C(=O)c1c[nH]c2ncccc12 [T43]", "141 nM"),
    ("CNC(=O)c1cs/c(=N\\C(=O)c2c[nH]c3ncccc23)n1-c1ccccc1Cl [T81]", "3.67 nM"),
    ("O=C(/N=c1\\occ(CO)n1Cc1ccccc1)c1c[nH]c2ncccc12 [T78]", "1.6 nM"),
    ("O=C(/N=c1\\occn1Cc1ccccc1)c1c[nH]c2ncccc12 [T25]", "59.2 nM"),
    ("CCc1cs/c(=N\\C(=O)c2c[nH]c3ncccc23)n1Cc1ccccc1 [T68]", "59.5 nM"),
    ("Cc1ccnc2[nH]cc(C(=O)/N=c3\\sccn3Cc3ccccc3)c12 [T05]", "3260 nM"),
    ("COc1cccc(-n2ccs/c2=N\\C(=O)c2c[nH]c3ncccc23)c1 [T23]", "576 nM"),
    ("Cc1ccc(-n2ccs/c2=N\\C(=O)c2c[nH]c3ncccc23)cc1 [T21]", "7.5 nM"),
    ("Cc1co/c(=N\\C(=O)c2c[nH]c3ncccc23)n1Cc1ccccc1 [T77]", "107 nM"),
    ("Cc1cs/c(=N\\C(=O)c2c[nH]c3ncccc23)n1CC1CCCCC1 [T73]", "0.8 nM"),
]

Origin of the recorded values: patent US12617785B2
